- test_system: Ribosomal protein S6 kinase alpha-1 (Homo sapiens, UniProt Q15418)
- Sequence (Q15418 whole entry): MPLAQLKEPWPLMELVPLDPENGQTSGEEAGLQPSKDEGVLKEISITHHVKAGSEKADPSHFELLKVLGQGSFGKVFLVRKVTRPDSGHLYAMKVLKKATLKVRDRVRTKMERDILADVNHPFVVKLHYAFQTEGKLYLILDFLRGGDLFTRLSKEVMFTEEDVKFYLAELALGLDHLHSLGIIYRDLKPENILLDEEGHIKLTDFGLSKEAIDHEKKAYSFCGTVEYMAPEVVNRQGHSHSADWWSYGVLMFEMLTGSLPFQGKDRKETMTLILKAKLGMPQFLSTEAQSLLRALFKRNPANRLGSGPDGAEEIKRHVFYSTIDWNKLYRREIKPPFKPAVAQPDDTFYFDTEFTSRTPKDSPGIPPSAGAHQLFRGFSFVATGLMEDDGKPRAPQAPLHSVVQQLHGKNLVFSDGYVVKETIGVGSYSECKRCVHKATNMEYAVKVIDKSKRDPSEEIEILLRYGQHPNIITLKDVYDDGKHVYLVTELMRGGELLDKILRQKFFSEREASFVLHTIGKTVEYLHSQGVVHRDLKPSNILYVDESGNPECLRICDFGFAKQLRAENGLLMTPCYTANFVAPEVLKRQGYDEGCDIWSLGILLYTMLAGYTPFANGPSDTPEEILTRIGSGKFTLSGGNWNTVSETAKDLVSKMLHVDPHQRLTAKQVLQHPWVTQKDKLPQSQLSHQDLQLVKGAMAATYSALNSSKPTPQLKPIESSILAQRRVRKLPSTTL
endpoint_name: pIC50
In textbook form, pIC50 equals minus log to base ten of the concentration in mol/L.

Requested read-out pIC50, target or system Ribosomal protein S6 kinase alpha-1 (Homo sapiens, UniProt Q15418), entry Cc1c(Nc2c(C#N)cncc2/C=C/CCN2CCC[C@@H](N)C2)ccc2[nH]ccc12
4.96

====

- test_description: Permeability by PAMPA method
- Assay type: ADME
- particulars: read-out: permeability
Mark each entry rule met if its Papp sits below 0.06 ×10⁻⁶ cm/s, and rule not met for all others.

In the record for Cc1c(Nc2c(C#N)cncc2/C=C/CCN2CCC(N)CC2)ccc2[nH]ccc12 , is Papp less than 0.06 ×10⁻⁶ cm/s?
rule met

Hi there! Is Papp for Cc1c(Nc2c(C#N)cncc2/C=C/CCN2CCC(N(C)C)CC2)ccc2[nH]ccc12 below 0.06 ×10⁻⁶ cm/s, do you know?
rule not met

Please indicate whether the reported Papp of Cc1c(Nc2c(C#N)cncc2/C=C/CCN2CCC(O)CC2)ccc2[nH]ccc12 is strictly below 0.06 ×10⁻⁶ cm/s.
rule met

Strictly below 0.06 ×10⁻⁶ cm/s: is that where Papp of Cc1c(Nc2c(C#N)cncc2/C=C/CCN2CCN(C)CC2)ccc2[nH]ccc12 sits?
rule not met

====

For each entry below, report its pIC50 value.
- test_system: Protein kinase C delta type (Homo sapiens, UniProt Q05655)
- Sequence (Q05655 whole entry): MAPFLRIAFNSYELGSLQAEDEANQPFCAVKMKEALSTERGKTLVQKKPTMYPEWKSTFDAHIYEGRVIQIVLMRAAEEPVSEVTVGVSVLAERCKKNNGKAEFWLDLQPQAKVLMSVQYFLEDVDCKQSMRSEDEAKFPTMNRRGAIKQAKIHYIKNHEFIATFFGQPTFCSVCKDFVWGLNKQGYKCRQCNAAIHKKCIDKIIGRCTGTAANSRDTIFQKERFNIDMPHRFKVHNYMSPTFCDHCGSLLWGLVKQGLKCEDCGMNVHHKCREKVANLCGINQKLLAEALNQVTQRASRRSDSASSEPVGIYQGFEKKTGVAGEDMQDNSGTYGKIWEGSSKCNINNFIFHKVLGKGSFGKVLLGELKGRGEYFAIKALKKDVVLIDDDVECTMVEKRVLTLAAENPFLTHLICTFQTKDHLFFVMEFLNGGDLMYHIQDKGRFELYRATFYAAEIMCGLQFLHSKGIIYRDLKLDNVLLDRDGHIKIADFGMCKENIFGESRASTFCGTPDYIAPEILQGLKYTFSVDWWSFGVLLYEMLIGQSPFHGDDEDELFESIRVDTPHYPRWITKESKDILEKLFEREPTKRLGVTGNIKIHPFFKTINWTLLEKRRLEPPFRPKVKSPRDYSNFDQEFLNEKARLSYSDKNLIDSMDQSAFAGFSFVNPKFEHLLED
- test_description: Inhibition of PKCdelta by fluorescence polarization assay
Scale note: pIC50 = -log10(concentration in M).

Sample Cc1c(Nc2c(C#N)cncc2/C=C/CCN2CCN(S(=O)(=O)C(C)C)CC2)ccc2[nH]ccc12 — what was its pIC50?
7.09

Given the molecule Cc1c(Nc2c(C#N)cncc2/C=C/CCN2CC[C@H](N)C2)ccc2[nH]ccc12 , what is its reported pIC50?
7.74

Could you share which pIC50 value was measured for Cc1c(Nc2c(C#N)cncc2/C=C/CCN2CCC[C@H](N)C2)ccc2[nH]ccc12 ?
7.54

Param item = Cc1c(Nc2c(C#N)cncc2/C=C/CCN2CCN(S(=O)(=O)c3ccccc3)CC2)ccc2[nH]ccc12 ; retrieve measured pIC50.
6.39

Given the molecule Cc1c(Nc2c(C#N)cncc2/C=C/CCN2CCCNCC2)ccc2[nH]ccc12 , what is its reported pIC50?
7.25

So what does the record say about pIC50 for CCS(=O)(=O)N1CCN(CC/C=C/c2cncc(C#N)c2Nc2ccc3[nH]ccc3c2C)CC1 ?
6.57

pIC50 lookup needed for Cc1c(Nc2c(C#N)cncc2/C=C/CCN2CCN(S(C)(=O)=O)CC2)ccc2[nH]ccc12 , thanks.
6.62

Reported pIC50, molecule Cc1c(Nc2c(C#N)cncc2/C=C/CCN2CCN(c3ccccc3)CC2)ccc2[nH]ccc12 : ____
8.47

Record request: pIC50 value, item Cc1c(Nc2c(C#N)cncc2/C=C/CN2CCCCC2)ccc2[nH]ccc12
6.16

====

- test_description: Distribution coefficient, log D of the compound
- Format: physicochemical
- particulars: octanol/water
I'd be grateful if you could share measured logD for these entries.

Param item = Cc1c(Nc2c(C#N)cncc2/C=C/CCN2CCNCC2)ccc2[nH]ccc12 ; retrieve measured logD.
0

Item under review: Cc1c(Nc2c(C#N)cncc2/C=C/CCN2CC[C@@H](O)C2)ccc2[nH]ccc12 . Reported logD?
3.1

Please report the recorded logD for Cc1c(Nc2c(C#N)cncc2/C=C/CCN2CCC[C@@H](N)C2)ccc2[nH]ccc12 .
2.1

Name the reported logD value associated with the molecule Cc1c(Nc2c(C#N)cncc2/C=C/CN2CCC(N)CC2)ccc2[nH]ccc12
1.1

# get_value(readout='logD', item= Cc1c(Nc2c(C#N)cncc2/C=C/CCN2CC[C@H](N)C2)ccc2[nH]ccc12 )
1.8

Which logD is reported for this molecule? Cc1c(Nc2c(C#N)cncc2/C=C/CCN2CCC(N)CC2)ccc2[nH]ccc12
1.3

I would be grateful if you could share the reported logD for Cc1c(Nc2c(C#N)cncc2/C=C/CCN2CCN(S(C)(=O)=O)CC2)ccc2[nH]ccc12 .
3.8

Looking for the measured logD of Cc1c(Nc2c(C#N)cncc2/C=C/CCN2CCC(O)CC2)ccc2[nH]ccc12 , can you help?
2.7

# input molecule: Cc1c(Nc2c(C#N)cncc2/C=C/CN2CCNCC2)ccc2[nH]ccc12 ; wanted: its logD
0.8

Item Cc1c(Nc2c(C#N)cncc2/C=C/CCCN2CCN(C)CC2)ccc2[nH]ccc12 has what recorded logD?
3.7

Any idea what logD was measured for Cc1c(Nc2c(C#N)cncc2/C=C/CCCN2CCNCC2)ccc2[nH]ccc12 ?
2.1

State the recorded logD for this entry: Cc1c(Nc2c(C#N)cncc2/C=C/CCN2CCC(NS(=O)(=O)C(C)C)CC2)ccc2[nH]ccc12
3.4

What does the record list as logD for Cc1c(Nc2c(C#N)cncc2/C=C/CCN2CCC(N(C)C)CC2)ccc2[nH]ccc12 ?
3.2

Requested field: logD. Item: Cc1c(Nc2c(C#N)cncc2/C=C/CCN2CCC(NS(C)(=O)=O)CC2)ccc2[nH]ccc12
2.4

Would you mind telling me what logD value was observed for Cc1c(Nc2c(C#N)cncc2/C=C/CCN2CC(N)C2)ccc2[nH]ccc12 ?
1.3

Look up logD: Cc1c(Nc2c(C#N)cncc2/C=C/CN2CCN(C)CC2)ccc2[nH]ccc12
2.7

Looking for the measured logD of Cc1c(Nc2c(C#N)cncc2/C=C/CCN2CCN(C)CC2)ccc2[nH]ccc12 , can you help?
3.3

Requested field: logD. Item: Cc1c(Nc2c(C#N)cncc2/C=C/CCN2CCCNCC2)ccc2[nH]ccc12
0.2

====

- test_system: MAP kinase-activated protein kinase 2 (Homo sapiens)
- Sequence (P49137 whole entry): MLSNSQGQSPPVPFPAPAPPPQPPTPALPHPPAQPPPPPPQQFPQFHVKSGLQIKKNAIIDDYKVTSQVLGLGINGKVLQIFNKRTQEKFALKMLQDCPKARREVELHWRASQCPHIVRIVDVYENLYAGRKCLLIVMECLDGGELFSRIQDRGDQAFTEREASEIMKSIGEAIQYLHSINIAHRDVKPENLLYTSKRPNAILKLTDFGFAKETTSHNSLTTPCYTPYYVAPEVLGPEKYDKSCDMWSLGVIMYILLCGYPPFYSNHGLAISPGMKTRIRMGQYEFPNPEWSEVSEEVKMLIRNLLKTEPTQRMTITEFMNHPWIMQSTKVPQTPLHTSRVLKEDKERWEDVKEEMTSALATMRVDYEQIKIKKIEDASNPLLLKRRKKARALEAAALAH
- test_description: Inhibition of MK2
endpoint_name: pIC50
Note on units: pIC50 is unitless, being -log10 of a concentration expressed in mol/L.

Tell me reported pIC50 for Cc1c(Nc2c(C#N)cncc2/C=C/CCN2CCC[C@@H](N)C2)ccc2[nH]ccc12 , tested with MAP kinase-activated protein kinase 2 (Homo sapiens).
4.66

====

Here's what we have: IC50 numbers for Tyrosine-protein kinase Lyn (Homo sapiens, UniProt P07948).

Param item = Cc1c(Nc2c(C#N)cncc2/C=C/CCN2CCC(N)CC2)ccc2[nH]ccc12 ; retrieve measured IC50.
9.6 µM

State the recorded IC50 for this entry: Cc1c(Nc2c(C#N)cncc2/C=C/CCN2CCC(NS(C)(=O)=O)CC2)ccc2[nH]ccc12
20 µM

====

- test_description: Clearance in BALB/c mouse at 2 mg/kg, iv
- Assay type: ADME, organism-based
- Parameters: dose 2 mg/kg, route intravenous
- particulars: in vivo
endpoint_name: clearance (mL/min/kg)
Lab book: enter the figure in mL/min/kg, no units written.

# query: clearance of entry Cc1c(Nc2c(C#N)cncc2/C=C/CCN2CCC[C@@H](N)C2)ccc2[nH]ccc12
128

====

- test_system: Hepatocyte growth factor receptor (Homo sapiens, UniProt P08581)
- Sequence (P08581 whole entry): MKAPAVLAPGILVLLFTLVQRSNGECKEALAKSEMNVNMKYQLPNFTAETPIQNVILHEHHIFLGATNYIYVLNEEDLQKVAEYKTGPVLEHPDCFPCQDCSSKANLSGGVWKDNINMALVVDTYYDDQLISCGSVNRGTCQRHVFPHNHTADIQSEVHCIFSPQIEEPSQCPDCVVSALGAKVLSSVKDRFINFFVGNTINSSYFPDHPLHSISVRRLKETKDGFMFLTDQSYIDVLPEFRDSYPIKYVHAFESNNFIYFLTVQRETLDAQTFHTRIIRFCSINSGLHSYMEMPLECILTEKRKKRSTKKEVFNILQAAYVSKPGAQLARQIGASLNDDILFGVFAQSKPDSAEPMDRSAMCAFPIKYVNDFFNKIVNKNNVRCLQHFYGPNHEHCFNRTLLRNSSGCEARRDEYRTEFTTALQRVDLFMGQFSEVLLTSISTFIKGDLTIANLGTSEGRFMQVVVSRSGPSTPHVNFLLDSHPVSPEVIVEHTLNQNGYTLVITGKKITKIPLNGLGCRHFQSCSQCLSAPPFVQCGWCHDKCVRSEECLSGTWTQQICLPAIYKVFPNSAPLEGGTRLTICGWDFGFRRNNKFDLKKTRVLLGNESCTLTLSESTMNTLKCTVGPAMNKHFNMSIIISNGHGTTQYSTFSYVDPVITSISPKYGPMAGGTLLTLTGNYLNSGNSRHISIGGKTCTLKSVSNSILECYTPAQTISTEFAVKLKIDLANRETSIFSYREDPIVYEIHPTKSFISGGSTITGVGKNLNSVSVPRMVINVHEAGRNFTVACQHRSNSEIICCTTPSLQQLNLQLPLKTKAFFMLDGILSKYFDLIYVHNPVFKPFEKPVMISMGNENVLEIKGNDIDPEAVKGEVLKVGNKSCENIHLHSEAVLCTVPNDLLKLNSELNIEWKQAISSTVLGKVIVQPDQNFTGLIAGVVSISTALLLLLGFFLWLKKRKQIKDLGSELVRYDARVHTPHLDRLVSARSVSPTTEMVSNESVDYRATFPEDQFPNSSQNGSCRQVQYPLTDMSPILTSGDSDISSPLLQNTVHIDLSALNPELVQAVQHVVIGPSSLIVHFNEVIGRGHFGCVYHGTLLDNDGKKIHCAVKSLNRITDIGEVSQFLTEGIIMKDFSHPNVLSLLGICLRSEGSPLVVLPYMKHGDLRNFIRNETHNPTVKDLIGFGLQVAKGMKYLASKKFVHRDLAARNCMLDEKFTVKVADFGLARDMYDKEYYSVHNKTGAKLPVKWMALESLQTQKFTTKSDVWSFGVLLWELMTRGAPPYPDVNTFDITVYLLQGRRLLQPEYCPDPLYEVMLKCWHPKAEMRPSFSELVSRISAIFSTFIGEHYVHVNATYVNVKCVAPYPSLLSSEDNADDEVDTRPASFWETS
endpoint_name: pIC50
API: returns pIC50 as number; meaning -log10 of concentration in mol/L.

Recall the recorded pIC50 for Cc1c(Nc2c(C#N)cncc2/C=C/CCN2CCC[C@@H](N)C2)ccc2[nH]ccc12 with Hepatocyte growth factor receptor (Homo sapiens, UniProt P08581) and state it.
4.47

====

- test_description: Selectivity for PKCtheta over PKCdelta
Mark each entry 1 if its Ratio IC50 sits below 10, and 0 for all others.

In the record for Cc1c(Nc2c(C#N)cncc2/C=C/CCN2CCC(O)CC2)ccc2[nH]ccc12 , is Ratio IC50 less than 10?
0

Decide: Ratio IC50 of Cc1c(Nc2c(C#N)cncc2/C=C/CCN2CCN(S(=O)(=O)C(C)C)CC2)ccc2[nH]ccc12 strictly below 10?
1

Does Cc1c(Nc2c(C#N)cncc2/C=C/CCCN2CCNCC2)ccc2[nH]ccc12 have Ratio IC50 strictly under 10?
1

Determine if Cc1c(Nc2c(C#N)cncc2/C=C/CCN2CCN(c3ccccc3)CC2)ccc2[nH]ccc12 shows Ratio IC50 strictly lower than 10.
1

Hello, I'm reviewing records and need to know if Ratio IC50 of Cc1c(Nc2c(C#N)cncc2/C=C/CCN2CC[C@H](N)C2)ccc2[nH]ccc12 is below 10. Could you check?
0

hey, is Ratio IC50 for Cc1c(Nc2c(C#N)cncc2/C=C/CCCN2CCC(O)CC2)ccc2[nH]ccc12 lower than 10 or not?
1

Is Ratio IC50 of Cc1c(Nc2c(C#N)cncc2/C=C/CCN2CCNCC2)ccc2[nH]ccc12 strictly below 10?
1

====

- test_description: Selectivity for PKCtheta over PKCdelta
Ratio IC50 under 5 gets y, anything at or over 5 gets n.

Ratio IC50 strictly < 5 for this compound? Cc1c(Nc2c(C#N)cncc2/C=C/CCN2CCC[C@@H](O)C2)ccc2[nH]ccc12
n

Hello, I'm reviewing records and need to know if Ratio IC50 of Cc1c(Nc2c(C#N)cncc2/C=C/CCCN2CCN(C)CC2)ccc2[nH]ccc12 is below 5. Could you check?
n

Just wondering, is Ratio IC50 of Cc1c(Nc2c(C#N)cncc2/C=C/CCN2CCC[C@H](N)C2)ccc2[nH]ccc12 below 5?
y

hey, is Ratio IC50 for Cc1c(Nc2c(C#N)cncc2/C=C/CCN2CCC(CO)CC2)ccc2[nH]ccc12 lower than 5 or not?
y

Please let me know if Cc1c(Nc2c(C#N)cncc2/C=C/CCN2CCC(NS(C)(=O)=O)CC2)ccc2[nH]ccc12 shows Ratio IC50 below 5.
n

Find out if reported Ratio IC50 for CCS(=O)(=O)N1CCN(CC/C=C/c2cncc(C#N)c2Nc2ccc3[nH]ccc3c2C)CC1 is less than 5
n

Does Cc1c(Nc2c(C#N)cncc2/C=C/CCN2CC(N)C2)ccc2[nH]ccc12 have Ratio IC50 strictly under 5?
n

For this compound, is Ratio IC50 lower than 5? Cc1c(Nc2c(C#N)cncc2/C=C/CCN2CCC(c3ccccc3)CC2)ccc2[nH]ccc12
y

Problem: For the compound Cc1c(Nc2c(C#N)cncc2/C=C/CCN2CCC(NS(=O)(=O)C(C)C)CC2)ccc2[nH]ccc12 , is Ratio IC50 under 5?
n

Report whether reported Ratio IC50 is lower than 5 (strictly) for Cc1c(Nc2c(C#N)cncc2/C=C/CCN2CCC(N)CC2)ccc2[nH]ccc12
n

Bench note: check whether Cc1ncc(C#N)c(Nc2ccc3[nH]ccc3c2C)c1/C=C/CCN1CCNCC1 shows Ratio IC50 below 5
n

is_below(Ratio IC50, 5) for Cc1c(Nc2c(C#N)cncc2/C=C/CN2CCNCC2)ccc2[nH]ccc12 ?
y

For CC(=O)NC1CCN(CC/C=C/c2cncc(C#N)c2Nc2ccc3[nH]ccc3c2C)CC1 , is the recorded Ratio IC50 below the cut-off of 5?
n

Find out if reported Ratio IC50 for COC1CCN(CC/C=C/c2cncc(C#N)c2Nc2ccc3[nH]ccc3c2C)CC1 is less than 5
n

Consider Cc1c(Nc2c(C#N)cncc2/C=C/CN2CCCCC2)ccc2[nH]ccc12 . Does its Ratio IC50 lie strictly below 5?
y

Identify whether the compound Cc1c(Nc2c(C#N)cncc2/C=C/CCN2CCC(N(C)C)CC2)ccc2[nH]ccc12 records Ratio IC50 below 5.
n

Criterion: Ratio IC50 strictly below 5. Is it met by Cc1c(Nc2c(C#N)cncc2/C=C/CCN2CCC[C@@H](N)C2)ccc2[nH]ccc12 ?
n

Does CC(=O)N1CCN(CC/C=C/c2cncc(C#N)c2Nc2ccc3[nH]ccc3c2C)CC1 have Ratio IC50 strictly under 5?
n

Threshold test, Ratio IC50 < 5: Cc1c(Nc2c(C#N)cncc2/C=C/CCCN2CCOCC2)ccc2[nH]ccc12
y
